# System: Fra-1 mRNA in H1299 cells
# EXPERIMENT SUMMARY: Fra-1 mRNA levels by Q-PCR in H1299 cells after HDAC inhibitor treatment
# Format: cell-based, Human
# RECORDED CONDITIONS: H1299 cell line, Tpx A treatment, Q-PCR; read-out: IC50 for Fra-1 mRNA down regulation
pIC50: −log10 of the molar value. Where a SMILES comes first, the peptide text is derived from it. [ ]: non-standard residue; d: D form. ξ: configuration not given here. Aoe(9ξ) = N[C@@H](CCCCCC(=O)C1CO1)C(=O)O; dPip = O=C(O)[C@H]1CCCCN1
REPORTED METRIC: pIC50

Item O=C(CCCCC[C@@H]1NC(=O)[C@H]2CCCCN2C(=O)[C@H](Cc2ccccc2)NC(=O)[C@H](Cc2ccccc2)NC1=O)C1CO1 (stereo partly shown) [TPX A, trapoxin A] (cyclo(FF[dPip][Aoe(9ξ)])) has what recorded pIC50?
8.00 to 9.00

---

# Test system: Fra-1 mRNA in A549 cells
# EXPERIMENT SUMMARY: Fra-1 mRNA levels by Q-PCR in A549 cells after HDAC inhibitor treatment
# Assay type: cell-based, Human
# RECORDED CONDITIONS: A549 cell line, Tpx A treatment, Q-PCR; read-out: IC50 for Fra-1 mRNA down regulation
pIC50: −log10 of the molar value. Where a SMILES comes first, the peptide text is derived from it. [ ]: non-standard residue; d: D form. ξ: configuration not given here. Aoe(9ξ) = N[C@@H](CCCCCC(=O)C1CO1)C(=O)O; dPip = O=C(O)[C@H]1CCCCN1
REPORTED METRIC: pIC50

Item O=C(CCCCC[C@@H]1NC(=O)[C@H]2CCCCN2C(=O)[C@H](Cc2ccccc2)NC(=O)[C@H](Cc2ccccc2)NC1=O)C1CO1 (stereo partly shown) [TPX A, trapoxin A] (cyclo(FF[dPip][Aoe(9ξ)])) has what recorded pIC50?
7.30 to 8.00
